# procedure.text: qHTS of TDP-43 Inhibitors; note: nearly all actives have a fitted effect of over 50% in size
# measurement.conditions: TDP-43 expressing yeast growth rescue, BacTiter-Glo, 24 h; series mostly up to 46.1 µM
Screen size: about 410,000 compounds; about 7,200 (1.8%) were called active. Not shown: some 7% with an inconclusive outcome. Calls come from the whole dose curve; as a rule, active = well fitted activation curve with a large enough effect; inconclusive = small, poorly fitted or top-dose-only effect, or another doubt; inactive = no such curve, though single readings can be large or run the other way. Only a selection was taken, and actives are over-represented in it overall.
The reply should name one outcome from class 1 = active, class 0 = inactive

Reference set, count: 4
CSc1oc(-c2cccs2)nc1S(=O)(=O)c1ccc(Br)cc1 : class 0
CCOc1ccc(CNC(=O)C2CCCN(S(=O)(=O)N(CC)c3ccc(OCC)cc3)C2)cc1 (stereo unspecified) : class 0
COC(=O)C1=CN(c2ccc(F)c(F)c2)C=C(C(=O)OC)C1c1ccc([N+](=O)[O-])cc1 : class 0
COc1ccccc1-c1n[nH]c2c1[C@H](C)CC[C@H]2C(C)C : class 1

How was Cc1ccccc1CNC(=O)CCCn1nc(C)c2sc3ccccc3c2c1=O classified in this test?
class 0

How was Cc1cc(C)cc(NC(=O)Cn2nc(N3CCN(c4ccccc4)CC3)ccc2=O)c1 classified in this test?
class 0

How was O=C(NCCc1ccccc1)C(=O)NCC(c1ccco1)S(=O)(=O)c1ccccc1 (stereo unspecified) classified in this test?
class 0

How was O=C(CSc1ccc(C(F)(F)F)cc1[N+](=O)[O-])NCCOc1ccccc1 classified in this test?
class 0

How was CCn1cc2nc(SCc3ccccc3Cl)n(CCc3ccccc3)c(=O)c2n1 classified in this test?
class 0

How was Brc1ccc(Nc2c3c(nc4ncnn24)CCC3)cc1 classified in this test?
class 1

How was CCCNC(=O)C1CCC(Cn2c(=O)c3sccc3n(Cc3ccccc3F)c2=O)CC1 (stereo unspecified) classified in this test?
class 0

How was COc1ccc(NC(=O)CCCN2C(=O)CCn3nc(-c4cn(C)c5ccccc45)cc32)cc1OC classified in this test?
class 0

How was Cc1ccc(CSc2nc3ccsc3c(=O)n2CCC(C)C)cc1 classified in this test?
class 0

###

# procedure.text: qHTS of TDP-43 Inhibitors; note: nearly all actives have a fitted effect of over 50% in size
# measurement.conditions: TDP-43 expressing yeast growth rescue, BacTiter-Glo, 24 h; series mostly up to 46.1 µM
Among all 410,000 compounds or so, about 7,200 (1.8%) were called active. Inconclusive results (about 7%) are left out. The call rests on the fitted dose curve; in most records, active means well fitted activation curve with a large enough effect; inconclusive means small, poorly fitted or top-dose-only effect, or another doubt; inactive means no such curve, though single readings can be large or run the other way. The list comes from a sample in which actives are over-represented; it also holds close analogues and randomly drawn compounds.
The reply should name one outcome from active, inactive

Reference set, count: 6
COc1ccc(NC(=O)C(c2ccncc2)n2c(=O)c(-c3cc4ccccc4[nH]3)nc3ccccc32)cc1 (stereo unspecified) : active
O=C(COC(=O)Cc1ccc([N+](=O)[O-])cc1)NC1CCCCCC1 : inactive
Cc1cc(NC(=O)c2cccc(Cl)c2)ccc1-c1cc2ccccc2oc1=O : inactive
Cc1ccc(Cn2c(=O)n(-c3ccc(C)cc3)c(=O)c3c2c2cc(C)ccc2n3C)cc1 : inactive
COc1ccccc1CNC(=O)NCc1noc2ccc(C)cc12 : inactive
Nc1c(-c2cccc(Cl)c2)cnn1-c1cccc([N+](=O)[O-])c1 : active

How was O=C(NCCc1ccccc1)c1ccc2c(c1)N(Cc1ccccc1)C(=O)c1ccccc1S2(=O)=O classified in this test?
inactive

How was CCOC(=O)CSc1ncc(-c2cccc(Cl)c2)cn1 classified in this test?
inactive

How was COc1ccc(C(C(=O)NCc2ccccc2)n2c(=O)c(-c3ccccc3)nc3ccccc32)cc1 (stereo unspecified) classified in this test?
inactive

How was COc1cc2c(cc1OC)C(c1cccc([N+](=O)[O-])c1)=NCC2 classified in this test?
inactive

###

# procedure.text: qHTS of TDP-43 Inhibitors; note: nearly all actives have a fitted effect of over 50% in size
# measurement.conditions: TDP-43 expressing yeast growth rescue, BacTiter-Glo, 24 h; series mostly up to 46.1 µM
In all, about 410,000 compounds went through this assay and about 7,200 (1.8%) were called active. Not shown: some 7% with an inconclusive outcome. Calls follow the shape of the dose curve; as a rule, active = well fitted activation curve with a large enough effect; inconclusive = small, poorly fitted or top-dose-only effect, or another doubt; inactive = no such curve, though single readings can be large or run the other way. The list comes from a sample in which actives are over-represented; it also holds close analogues and randomly drawn compounds.
The reply should name one outcome from y = active, n = inactive

Reference set, count: 3
COc1ccc(CNc2nc(-c3ccc(Cl)cc3)nn2S(=O)(=O)c2ccc(C)cc2)cc1 : n
COc1cccc(CNC(=O)c2ccc3c(c2)N(Cc2ccc(C(F)(F)F)cc2)C(=O)c2ccccc2S3)c1OC : n
Nc1cccc(-c2cncc(N3CCN(Cc4ccccn4)CC3)n2)c1 : n

Please find the next compound below.
How was CCOC(=O)N1CCC(NC(=O)c2cnn(-c3cccc(C)c3)c2C2CCN(C(=O)OC(C)(C)C)CC2)CC1 classified in this test?
n

###

# procedure.text: qHTS of TDP-43 Inhibitors; note: nearly all actives have a fitted effect of over 50% in size
# measurement.conditions: TDP-43 expressing yeast growth rescue, BacTiter-Glo, 24 h; series mostly up to 46.1 µM
About 7,200 (1.8%) of roughly 410,000 compounds were called active. Not shown: some 7% with an inconclusive outcome. Calls come from the whole dose curve; as a rule, active = well fitted activation curve with a large enough effect; inconclusive = small, poorly fitted or top-dose-only effect, or another doubt; inactive = no such curve, though single readings can be large or run the other way. This is one part of a sample in which actives are shown more often than they occur.
The reply should name one outcome from y (active), n (inactive)

O=C(c1cnn(-c2ccc(F)cc2)c1-n1cccc1)N1CCN(c2ccc(F)cc2)CC1 : y
O=C1C2C3C=CC(C3)C2C(=O)N1c1ncc([N+](=O)[O-])s1 (stereo not given) : y
O=C(Nc1ccc(F)cc1F)c1cnn(-c2ccc(F)cc2)c1-n1cccc1 : n

How was O=C1C2C3C=CC(C4CC34)C2C(=O)N1c1nccs1 (stereo not given) classified in this test?
n

How was O=C1C2C3C=CC(C3)C2C(=O)N1c1ccc(S(=O)(=O)Nc2nccs2)cc1 (stereo not given) classified in this test?
n

###

# procedure.text: qHTS of TDP-43 Inhibitors; note: nearly all actives have a fitted effect of over 50% in size
# measurement.conditions: TDP-43 expressing yeast growth rescue, BacTiter-Glo, 24 h; series mostly up to 46.1 µM
Out of some 410,000 compounds screened, about 7,200 (1.8%) were called active. Not shown: some 7% with an inconclusive outcome. Calls follow the shape of the dose curve; as a rule, active = well fitted activation curve with a large enough effect; inconclusive = small, poorly fitted or top-dose-only effect, or another doubt; inactive = no such curve, though single readings can be large or run the other way. Many of the other results were omitted from the sample, so actives are more common in it than they were.
The reply should name one outcome from active, inactive

Reference set, count: 5
Cc1ccc(C(=O)Nc2ccccc2F)cc1S(=O)(=O)N1CCOCC1 : inactive
Cc1ccc2nc(NC(=O)c3nc(SCc4ccccc4F)ncc3Cl)sc2c1 : inactive
CN(C)c1ccnc2sc(C(=O)c3ccccc3)c(N)c12 : active
CC(C)(C)c1ccc(S(=O)(=O)NC(=O)C2(C)CCN2C(=O)CC2CC2)cc1 (stereo unspecified) : inactive
Cc1cccc(NC(=O)c2nc(S(=O)(=O)Cc3ccccc3)ncc2Cl)c1 : active

Please find the next compound below.
How was O=C(Nc1cccc(-c2nc3ccccc3o2)c1)c1cccc(Br)c1 classified in this test?
inactive

###

# procedure.text: qHTS of TDP-43 Inhibitors; note: nearly all actives have a fitted effect of over 50% in size
# measurement.conditions: TDP-43 expressing yeast growth rescue, BacTiter-Glo, 24 h; series mostly up to 46.1 µM
In all, about 410,000 compounds went through this assay and about 7,200 (1.8%) were called active. Not shown: some 7% with an inconclusive outcome. Calls follow the shape of the dose curve; as a rule, active = well fitted activation curve with a large enough effect; inconclusive = small, poorly fitted or top-dose-only effect, or another doubt; inactive = no such curve, though single readings can be large or run the other way. Only a selection was taken, and actives are over-represented in it overall.
The reply should name one outcome from Y for active, N for inactive

How was CCOC(=O)N1CCc2c(sc3c2C(=O)NC(c2ccccc2F)N3)C1 (configuration not stated) classified in this test?
N

How was Cc1ccccc1C(=O)OC1OC(=O)C(Cl)=C1Nc1ccccc1 (configuration not stated) classified in this test?
Y

How was O=C(COc1ccc2ccc(=O)oc2c1)NCC(O)c1ccccc1 (configuration not stated) classified in this test?
N

How was COc1cc(NC(=O)c2noc3c2CSc2ccccc2-3)cc(OC)c1OC classified in this test?
N

How was COc1ccc(-c2cc(C(F)(F)F)n3nc(-c4ccccc4)cc3n2)cc1OC classified in this test?
N

How was CC(C)OC(=O)c1ccc(COc2ccc3ccc(=O)oc3c2)o1 classified in this test?
Y

How was Cn1c(=O)c2c(-c3ccccc3Br)n(Cc3ccccc3)cc2n(C)c1=O classified in this test?
Y

How was Clc1ccc(Nc2nc(-c3cccs3)cs2)nc1 classified in this test?
Y

How was Cc1ccc(-c2c3c(=O)n(C)c(=O)n(C)c3cn2-n2cnnc2)cc1 classified in this test?
N

How was Cc1nc2ccc(C(=O)N3CCSCC3)cc2s1 classified in this test?
N

###

# procedure.text: qHTS of TDP-43 Inhibitors; note: nearly all actives have a fitted effect of over 50% in size
# measurement.conditions: TDP-43 expressing yeast growth rescue, BacTiter-Glo, 24 h; series mostly up to 46.1 µM
The whole screen tested about 410,000 compounds, of which about 7,200 (1.8%) were called active. Inconclusive results (about 7%) are left out. Calls come from the whole dose curve; as a rule, active = well fitted activation curve with a large enough effect; inconclusive = small, poorly fitted or top-dose-only effect, or another doubt; inactive = no such curve, though single readings can be large or run the other way. The entries come from a sample that favours actives as a whole.
The reply should name one outcome from active, inactive

Reference set, count: 5
COc1cccc(C(=O)NC(=O)Nc2ccc(-c3cc(C(F)(F)F)nn3-c3ccccc3)cc2)c1 : inactive
Cc1ccc(-c2nnc3c4ccccc4c(C)nn23)cc1NC(=O)c1cccc(Br)c1 : inactive
Cc1ccc(OCC(=O)Nc2ccc(Cl)c(-c3nc4ccccc4[nH]3)c2)cc1C : active
CC(NC(=S)Nc1ccccc1)C(c1cccs1)N1CCOCC1 (stereo not given) : inactive
CCN(C(=O)Cc1c(C(=O)O)n(CC)c2ccccc12)c1ccccc1C : active

Please find the next molecule below.
How was COC(=O)[C@]1(S(=O)(=O)c2ccccc2)C[C@@H]2ON=C(c3ccc(OC)cc3)[C@@H]2C1 classified in this test?
active

Data origin, for the record: PubChem BioAssay AID652104
